Data origin: patent US20090137572A1

# SYSTEM_TESTED: CDK2-cyclin A (Homo sapiens)
# ASSAY_OVERVIEW: Kinase assay (radioactive phosphate incorporation), CDK2-cyclin A
# Format: biochemical
# EXPERIMENTAL_CONDITIONS: read-out: Kinase Inhibition pIC50 CDK2-cyclin A (converted)
Exam item: assign satisfied to entries whose IC50 is below 600 nM and not satisfied to entries at or above 600 nM. Note that a value of exactly 600 nM receives not satisfied.

Known results for compounds:
CNc1nc(C)c(-c2ccnc(Nc3ccc(CNC(C)=O)cc3)n2)s1 = not satisfied
CNc1nc(C)c(-c2ccnc(Nc3cccc(S(C)(=O)=O)c3)n2)s1 = satisfied
CNc1nc(C)c(-c2ccnc(Nc3ccc(S(C)(=O)=O)cc3)n2)s1 = satisfied
CCNc1nc(C)c(-c2ccnc(Nc3cccc(S(=O)(=O)NCCO)c3)n2)s1 = not satisfied
CCOC(=O)Cc1cccc(NS(=O)(=O)c2ccc(Nc3nccc(-c4sc(NC)nc4C)n3)cc2)c1 = not satisfied

Q: Please state whether IC50 is below 600 nM for Cc1nc(N)sc1-c1ccnc(Nc2cccc(CNS(C)(=O)=O)c2)n1
Ans: satisfied

Q: Regarding Cc1nc(C)c(-c2ccnc(Nc3ccc(S(=O)(=O)NCc4ccccc4)cc3)n2)s1 , kindly confirm whether its IC50 is beneath 600 nM.
Ans: not satisfied

Q: Please state whether IC50 is below 600 nM for CNc1nc(C)c(-c2ccnc(Nc3cccc(S(=O)(=O)NC)c3)n2)s1
Ans: not satisfied

====

Consider compounds characterized by their IC50 with protein kinases (panel of Table 4) (Homo sapiens, UniProt P09619).
Sequence (P09619 whole entry): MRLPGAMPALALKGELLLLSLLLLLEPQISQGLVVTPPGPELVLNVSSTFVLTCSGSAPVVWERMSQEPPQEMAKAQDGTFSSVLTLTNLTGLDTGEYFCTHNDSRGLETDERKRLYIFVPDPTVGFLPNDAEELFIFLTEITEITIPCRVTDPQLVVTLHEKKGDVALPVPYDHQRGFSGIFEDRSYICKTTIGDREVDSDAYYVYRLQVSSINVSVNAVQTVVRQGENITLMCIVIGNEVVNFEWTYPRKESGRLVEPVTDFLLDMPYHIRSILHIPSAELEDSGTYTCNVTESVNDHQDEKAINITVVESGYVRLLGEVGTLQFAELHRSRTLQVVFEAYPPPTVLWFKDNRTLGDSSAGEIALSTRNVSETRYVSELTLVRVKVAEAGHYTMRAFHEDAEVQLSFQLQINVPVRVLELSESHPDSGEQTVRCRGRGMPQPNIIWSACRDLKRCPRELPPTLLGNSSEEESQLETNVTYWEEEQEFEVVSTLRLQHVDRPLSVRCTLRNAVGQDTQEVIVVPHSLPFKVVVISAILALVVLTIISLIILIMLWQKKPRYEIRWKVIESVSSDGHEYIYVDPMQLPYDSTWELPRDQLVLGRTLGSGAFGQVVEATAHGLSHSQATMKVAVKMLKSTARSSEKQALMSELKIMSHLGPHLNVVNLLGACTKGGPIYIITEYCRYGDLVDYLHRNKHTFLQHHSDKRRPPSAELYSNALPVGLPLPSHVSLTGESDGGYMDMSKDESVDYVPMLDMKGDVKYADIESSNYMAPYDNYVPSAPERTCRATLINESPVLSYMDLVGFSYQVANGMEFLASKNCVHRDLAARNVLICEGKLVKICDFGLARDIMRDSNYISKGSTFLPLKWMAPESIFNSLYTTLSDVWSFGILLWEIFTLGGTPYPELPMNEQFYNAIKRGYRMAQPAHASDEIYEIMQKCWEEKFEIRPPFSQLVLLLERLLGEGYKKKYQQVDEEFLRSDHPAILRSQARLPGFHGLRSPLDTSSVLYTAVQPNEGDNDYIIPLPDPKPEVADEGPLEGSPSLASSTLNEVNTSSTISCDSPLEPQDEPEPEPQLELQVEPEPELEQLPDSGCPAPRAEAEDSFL
Express your answer in nM, writing the number without its unit.

Field: example entries. Status: answers known.
CNc1nc(C)c(-c2ccnc(Nc3cccc(S(N)(=O)=O)c3)n2)s1 = 490
CNc1nc(C)c(-c2ccnc(Nc3cccc(S(C)(=O)=O)c3)n2)s1 = 520

We now examine a further compound.
Q: Look up and report measured IC50 (protein kinases (panel of Table 4) (Homo sapiens, UniProt P09619)) for the following compound: CCNc1nc(C)c(-c2ccnc(Nc3ccc(N4CCNCC4)cc3)n2)s1
Ans: 210

====

# SYSTEM_TESTED: protein kinases (panel of Table 4)
# Construct: other: kinase CaMKII; ATP 100 μM
# ASSAY_OVERVIEW: Kinase selectivity profile, kinase inhibition IC50 (Table 4), ATP 100 μM
# Format: biochemical
# EXPERIMENTAL_CONDITIONS: kinase CaMKII
READOUT_LABEL: IC50

CNc1nc(C)c(-c2ccnc(Nc3cccc(S(C)(=O)=O)c3)n2)s1 [Compound 27] = > 10 µM
Cc1ccc(Nc2nccc(-c3sc(N)nc3C)n2)cc1S(=O)(=O)N1CCOCC1 [Compound 38] = 6.2 µM

Q: Dear colleague, please send me the reported IC50 for CNc1nc(C)c(-c2ccnc(Nc3cccc(S(N)(=O)=O)c3)n2)s1 [Compound 19] when you can.
Ans: 4.3 µM

Q: Give IC50 for CNc1nc(C)c(-c2ccnc(Nc3ccc(C)c(S(=O)(=O)N4CCOCC4)c3)n2)s1 [Compound 37]
Ans: > 10 µM

Q: Kindly indicate its recorded IC50. Item: COCCNS(=O)(=O)c1cccc(Nc2nccc(-c3sc(N)nc3C)n2)c1 [Compound 55]
Ans: > 10 µM

Q: Could you please provide reported IC50 for CCNc1nc(C)c(-c2ccnc(Nc3ccc(N4CCNCC4)cc3)n2)s1 [Compound 59] ? Thanks!
Ans: 1 µM

====

# SYSTEM_TESTED: UniProtKB P24941
# ASSAY_OVERVIEW: Kinase assay (radioactive phosphate incorporation), CDK2-cyclin E
# Type: biochemical
# EXPERIMENTAL_CONDITIONS: read-out: Kinase Inhibition pIC50 CDK2-cycline E (converted)
READOUT_LABEL: IC50 (nM)
Answer with a number only, understood to be in nM.

Solved cases (3 shown):
COCCOC(=O)Cc1cccc(Nc2nccc(-c3sc(N)nc3C)n2)c1 = 1000
CNc1nc(C)c(-c2ccnc(Nc3ccc(CNC(C)=O)cc3)n2)s1 = 39.8
CCNc1nc(C)c(-c2ccnc(Nc3ccc(N4CCOCC4)c(OC)c3)n2)s1 = 251

Q: Input CNc1nc(C)c(-c2ccnc(Nc3cccc(N4CCNCC4)c3)n2)s1 , output reported IC50.
Ans: 398

Q: Entry Cc1nc(C)c(-c2ccnc(Nc3ccc(N4CCN(C(=O)C5CC5)CC4)cc3)n2)s1 needs its IC50 filled in; supply it.
Ans: 1580

Q: Indicate the recorded IC50 value for this molecule: CNS(=O)(=O)c1cccc(Nc2nccc(-c3sc(C)nc3C)n2)c1
Ans: 50.1

Q: Provide IC50 value for the following molecule: COc1cc(Nc2nccc(-c3sc(CO)nc3C)n2)ccc1N1CCCCC1
Ans: 1580

Q: Entry COCCNS(=O)(=O)c1cccc(Nc2nccc(-c3sc(N)nc3C)n2)c1 needs its IC50 filled in; supply it.
Ans: 251

Q: Annotate the molecule CCNc1nc(C)c(-c2ccnc(Nc3cccc(S(=O)(=O)NC(C)(C)CO)c3)n2)s1 with its measured IC50.
Ans: 631

====

# SYSTEM_TESTED: GSK3b (Homo sapiens, UniProt P49841)
# Sequence (P49841 whole entry, species assumed): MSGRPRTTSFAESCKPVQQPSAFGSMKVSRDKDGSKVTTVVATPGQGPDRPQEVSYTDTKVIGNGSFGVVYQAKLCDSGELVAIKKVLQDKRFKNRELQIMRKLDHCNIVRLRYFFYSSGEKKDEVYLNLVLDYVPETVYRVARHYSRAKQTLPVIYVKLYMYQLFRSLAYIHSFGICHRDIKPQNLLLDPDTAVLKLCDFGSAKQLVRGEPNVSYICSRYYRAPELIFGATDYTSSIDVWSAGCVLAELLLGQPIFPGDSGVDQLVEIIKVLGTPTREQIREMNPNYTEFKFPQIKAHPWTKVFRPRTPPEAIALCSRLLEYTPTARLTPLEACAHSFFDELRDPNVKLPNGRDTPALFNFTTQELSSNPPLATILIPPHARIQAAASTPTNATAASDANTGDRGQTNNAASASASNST
# ASSAY_OVERVIEW: Kinase assay (radioactive phosphate incorporation), GSK-3b
# Format: biochemical
# EXPERIMENTAL_CONDITIONS: read-out: Kinase Inhibition pIC50 GSK-3b (converted)
READOUT_LABEL: IC50 (µM)
The reply should contain only the number, in µM.

CNc1nc(C)c(-c2ccnc(Nc3cccc(S(=O)(=O)NC)c3)n2)s1 [Compound 21] = 0.251
CC(=O)NS(=O)(=O)c1cccc(Nc2nccc(-c3sc(N)nc3C)n2)c1 [Compound 64] = 1.58

Q: Identify measured IC50 associated with CNc1nc(C)c(-c2ccnc(Nc3cccc(S(=O)(=O)NCCO)c3)n2)s1 [Compound 76]
Ans: 0.501

Q: Give IC50 for the following molecule: CNc1nc(C)c(-c2ccnc(Nc3ccc(C)c(S(=O)(=O)N4CCOCC4)c3)n2)s1 [Compound 37]
Ans: 1.26

Q: Answer with reported IC50 of Cc1nc(C)c(-c2ccnc(Nc3cccc(CNC(=O)c4ccccc4)c3)n2)s1 [Compound 9]
Ans: 2

Q: State its IC50 for this molecule: CC(=O)NCc1cccc(Nc2nccc(-c3sc(-c4cccnc4)nc3C)n2)c1 [Compound 101]
Ans: 7.94

Q: // fetch IC50 given entry CCNc1nc(C)c(-c2ccnc(Nc3ccc(S(C)(=O)=O)cc3)n2)s1 [Compound 17]
Ans: 2

Q: Quote IC50 reported for CNc1nc(C)c(-c2ccnc(Nc3cccc(S(C)(=O)=O)c3)n2)s1 [Compound 27] please.
Ans: 0.1

Q: Supply IC50 value. Item: CCNc1nc(C)c(-c2ccnc(Nc3cccc(S(C)(=O)=O)c3)n2)s1 [Compound 28]
Ans: 0.631

Q: Dear colleague, please send me the reported IC50 for Cc1nc(C)c(-c2ccnc(Nc3ccc(C)c(S(=O)(=O)N4CCOCC4)c3)n2)s1 [Compound 82] when you can.
Ans: 3.16

Q: Quickly give me recorded IC50 for CCNc1nc(C)c(-c2ccnc(Nc3cccc(S(=O)(=O)NCc4ccccc4)c3)n2)s1 [Compound 80]
Ans: 2.51

Q: Look up and report measured IC50 for this entry: CCNc1nc(C)c(-c2ccnc(Nc3cccc(S(=O)(=O)NCCOC)c3)n2)s1 [Compound 53]
Ans: 0.501

Q: Give IC50 for the following molecule: CNc1nc(C)c(-c2ccnc(Nc3cccc(N4CCN(C(C)=O)CC4)c3)n2)s1 [Compound 3]
Ans: 5.01

Q: Give a short answer stating reported IC50 for Cc1nc(NC(C)(C)C)sc1-c1ccnc(Nc2cccc([N+](=O)[O-])c2)n1 [Compound 51] .
Ans: 0.631

Q: Quote IC50 reported for Cc1nc(C)c(-c2ccnc(Nc3cccc(CNS(=O)(=O)C(F)(F)F)c3)n2)s1 [Compound 11] please.
Ans: 1.58

Q: Dear colleague, please send me the reported IC50 for Cc1nc(N)sc1-c1ccnc(Nc2ccc(S(=O)(=O)NCCO)cc2)n1 [Compound 68] when you can.
Ans: 1.26

Q: Dear colleague, please send me the reported IC50 for CNc1nc(C)c(-c2ccnc(Nc3ccc(S(N)(=O)=O)cc3)n2)s1 [Compound 34] when you can.
Ans: 1.26

====

# SYSTEM_TESTED: protein kinases (panel of Table 4) (Homo sapiens)
# Construct: other: kinase VEGFR2; ATP 100 μM
# ASSAY_OVERVIEW: Kinase selectivity profile, kinase inhibition IC50 (Table 4), ATP 100 μM
# Type: biochemical
# EXPERIMENTAL_CONDITIONS: kinase VEGFR2
READOUT_LABEL: IC50 (nM)
Expressed in nM, but write only the number.

CNc1nc(C)c(-c2ccnc(Nc3cccc(S(N)(=O)=O)c3)n2)s1 = 36

Q: Given COCCNS(=O)(=O)c1cccc(Nc2nccc(-c3sc(N)nc3C)n2)c1 , respond with its IC50.
Ans: 240

Q: Query IC50 for CCNc1nc(C)c(-c2ccnc(Nc3ccc(N4CCNCC4)cc3)n2)s1
Ans: 46

Q: Look up IC50 of CNc1nc(C)c(-c2ccnc(Nc3cccc(S(C)(=O)=O)c3)n2)s1 and report it.
Ans: 44

Q: State its IC50 for this molecule: CNc1nc(C)c(-c2ccnc(Nc3ccc(C)c(S(=O)(=O)N4CCOCC4)c3)n2)s1
Ans: 390
